system: HB3; assay: qHTS profiling for inhibitors of Plasmodium falciparum proliferation (AID 504749); also: nearly all actives have a fitted effect of over 60% in size; conditions: P. falciparum in erythrocytes, SYBR Green DNA, 72 h; series mostly up to 28.7 µM
Results filed as inconclusive are left out. Active and inactive are the calls of the source. Calls follow the shape of the dose curve; as a rule, active = well fitted inhibition curve with a large enough effect; inconclusive = small, poorly fitted or top-dose-only effect; inactive = flat fitted curve, though single readings scatter.
Possible outcomes: active, inactive

Molecule: CN1CCC[C@@H]1c1cccnc1
Tested On: HB3
Classification: inactive
//
Molecule: C[C@H]1C[C@H]2[C@@H]3CCC4=CC(=O)C=C[C@]4(C)[C@@]3(Cl)[C@@H](O)C[C@]2(C)[C@@]1(O)C(=O)CO
Tested On: HB3
Classification: inactive
//
Molecule: O=C1CCC(c2ccc(-n3ccnc3)cc2)=NN1
Tested On: HB3
Classification: inactive
//
Molecule: c1ccc(OCc2ccc(CCCN3CCOCC3)cc2)cc1
Tested On: HB3
Classification: inactive
//
Molecule: NCCC(O)(P(=O)(O)O)P(=O)(O)O
Tested On: HB3
Classification: inactive
//
Molecule: Nc1ccc(C(=O)O)cc1
Tested On: HB3
Classification: inactive
//
Molecule: C[C@@H]1CN(CCCn2c3ccccc3c3ccccc32)C[C@H](C)N1
Tested On: HB3
Classification: inactive
//
Molecule: CN(C)CCOc1ccccc1Cc1ccccc1
Tested On: HB3
Classification: inactive
//
Molecule: O=C(Nc1ccc(Cl)c(Cl)c1)C1CC1
Tested On: HB3
Classification: inactive
//
Molecule: CCCCCC=CCC=CCCCCCCCC(=O)OCC
Tested On: HB3
Classification: inactive
//
Molecule: Clc1ccc2c(c1)CCc1cccnc1C2=C1CCNCC1
Tested On: HB3
Classification: inactive
//
Molecule: CCCCOc1ccc(C(=O)CCN2CCCCC2)cc1
Tested On: HB3
Classification: inactive
//
Molecule: C#C[C@]1(O)CC[C@H]2[C@@H]3CCc4cc(OC5CCCC5)ccc4[C@H]3CC[C@@]21C
Tested On: HB3
Classification: inactive
//
Molecule: CC(C)(C)CC(C)(C)c1ccc(O)c(Cc2ccc(Cl)cc2Cl)c1
Tested On: HB3
Classification: active
//
Molecule: COCc1c(C(C)C)nc(C(C)C)c(/C=C/[C@@H](O)C[C@@H](O)CC(=O)O)c1-c1ccc(F)cc1
Tested On: HB3
Classification: inactive
//
Molecule: COc1cccc2c1C(=O)c1c(O)c3c(c(O)c1C2=O)C[C@@](O)(C(C)=O)C[C@@H]3O[C@H]1C[C@H](N)[C@H](O)[C@H](C)O1
Tested On: HB3
Classification: active
//
Molecule: CC(O)C(=O)O (stereo unspecified)
Tested On: HB3
Classification: inactive
//
Molecule: O=c1c(-c2ccccc2)c1-c1ccccc1
Tested On: HB3
Classification: active
//
Molecule: CCCN1CCCC[C@H]1C(=O)Nc1c(C)cccc1C
Tested On: HB3
Classification: inactive
//
Molecule: CCCCN1CCCC1C(=O)Nc1c(C)cc(C)cc1C (stereo unspecified)
Tested On: HB3
Classification: inactive
//
Molecule: COc1ccc(CCN2CCC(Nc3nc4ccccc4n3Cc3ccc(F)cc3)CC2)cc1
Tested On: HB3
Classification: active
//
Molecule: CN1C2CCC1CC(OC(=O)c1c[nH]c3ccccc13)C2 (stereo unspecified)
Tested On: HB3
Classification: inactive
//
Molecule: CC1=C(C(=O)OC(C)C)C(c2cccc([N+](=O)[O-])c2)C(C(=O)OC2CN(C(c3ccccc3)c3ccccc3)C2)=C(N)N1 (stereo unspecified)
Tested On: HB3
Classification: active
//
Molecule: CCOC(=O)COc1ccc2c(C)c(CCN(CC)CC)c(=O)oc2c1Cl
Tested On: HB3
Classification: inactive
//
Molecule: COc1c2occc2c(OC)c2c(=O)cc(C)oc12
Tested On: HB3
Classification: inactive
//
Molecule: Nc1ccc(/C=C/c2ccc(N)cc2S(=O)(=O)O)c(S(=O)(=O)O)c1
Tested On: HB3
Classification: inactive
//
Molecule: Cc1cccn2c(=O)c(-c3nnn[nH]3)cnc12
Tested On: HB3
Classification: inactive
//
Molecule: CC(=O)Oc1ccc(C(=C2CCCCC2)c2ccc(OC(C)=O)cc2)cc1
Tested On: HB3
Classification: inactive
//
Molecule: CC(=O)c1ccc2c(c1)N(CCCN1CCC(CCO)CC1)c1ccccc1S2
Tested On: HB3
Classification: inactive
//
Molecule: CCCCCCc1ccc(O)cc1O
Tested On: HB3
Classification: inactive
//
Molecule: COC(=O)[C@@H]1CC2=CC(=O)CC[C@]2(C)[C@@]23O[C@@H]2C[C@@]2(C)[C@@H](CC[C@@]24CCC(=O)O4)[C@H]13
Tested On: HB3
Classification: inactive
//
Molecule: Cc1c(C(N)=O)cc([N+](=O)[O-])cc1[N+](=O)[O-]
Tested On: HB3
Classification: inactive
//
Molecule: COc1ccc(/C=C/C(=O)c2ccc(OC)cc2OC)cc1
Tested On: HB3
Classification: active
//
Molecule: Cc1cc(N)c2cc(NC(=O)Nc3ccc4nc(C)cc(N)c4c3)ccc2n1
Tested On: HB3
Classification: active
//
Molecule: CCN1CCC[C@H]1CNC(=O)c1c(OC)ccc(Br)c1OC
Tested On: HB3
Classification: inactive
//
Molecule: CN(C)CCCOc1nn(Cc2ccccc2)c2ccccc12
Tested On: HB3
Classification: inactive
